Origin of the recorded values: the supplement of paper PMC4466140

biological target: ScBem1-D1; assay: SPOT peptide array binding signal intensity (averaged, normalized) (arbitrary units (background-subtracted, floor 0; scale differs between SH3 domains)); higher = stronger binding of the SH3 domain to the peptide
Param threshold (6) applies to SPOT peptide array binding signal intensity; output y when value >= threshold, n when value < threshold.

BINDER	LABEL VALUE
QHQQRQPKRPKRYSL	y
NAGIRPKFILALNDE	n
KNRKNLPTIPIRLSG	y
RPVPRRPSQPLNTLS	y
RKNRAPPQRPRFNRE	y
RKNRAPPQRPRFNRD	y
DFTLPPPPPPPGLDE	n
